What Phage binding ELISA, Anti-CD28 Fab signal in the presence of CD28 was measured for each of the following?
system.tested: T1, Anti-CD28 Fab (SEQ ID NOs: 696, 697)
T1 construct: Biotinylated and captured on neutravidin coated plates in the phage ELISA
procedure.summary: clonal phage ELISA on captured anti-CD28 Fab; wells pre-incubated with CD28 antigen as competitor
One number for each entry.

Here is how some binders turned out for Phage binding ELISA, Anti-CD28 Fab signal in the presence of CD28.
binder	value.reported
YCEGHLWEYLAKCL [Phage-1183]	0.05
YCEGHSAEYIGKCL [Phage-1187]	0.07
YCAGHAEEYMLKCL [Phage-1186]	0.07
YCEGHSEMYMSKCL [Phage-1190]	0.09

Next, consider the following binder.
For record YCDGHANAYIWKCL [Phage-1191] the listed Phage binding ELISA, Anti-CD28 Fab signal in the presence of CD28 is 0.09
